Entries and their measured inhibition at 10 µM follow.
- system: hDGAT1 (Homo sapiens, UniProt O75907)
- Construct: host or cells: Sf9 insect cells (baculovirus); microsomal preparation
- Sequence (O75907 1-488): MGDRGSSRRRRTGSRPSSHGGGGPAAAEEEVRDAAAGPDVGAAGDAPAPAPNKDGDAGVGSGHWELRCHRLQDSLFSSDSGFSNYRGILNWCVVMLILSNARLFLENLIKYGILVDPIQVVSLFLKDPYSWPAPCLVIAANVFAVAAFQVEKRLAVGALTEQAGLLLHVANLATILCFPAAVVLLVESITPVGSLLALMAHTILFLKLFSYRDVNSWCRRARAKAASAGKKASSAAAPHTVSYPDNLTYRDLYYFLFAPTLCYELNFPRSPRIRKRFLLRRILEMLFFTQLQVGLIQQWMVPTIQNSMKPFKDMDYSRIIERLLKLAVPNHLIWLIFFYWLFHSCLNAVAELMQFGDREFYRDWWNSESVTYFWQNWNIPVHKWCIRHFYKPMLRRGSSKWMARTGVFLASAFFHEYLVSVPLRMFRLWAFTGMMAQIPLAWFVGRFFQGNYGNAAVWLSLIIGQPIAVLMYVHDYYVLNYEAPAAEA
- assay-method-text: In-vitro DGAT1 assay (hDGAT1 microsomes from Sf9 cells, 14C oleoyl CoA, triglyceride formation)
- Format: biochemical
- applied-conditions: At 10 μM

// known answers, use as guide
compound: CC(C)[C@H](NC(=S)c1cc(-c2ccc(Nc3nc4ccc(F)cc4s3)cc2)no1)C(=O)O [Example 45]
system: hDGAT1 (Homo sapiens, UniProt O75907)
inhibition at 10 µM: 50 to 75%
--
compound: Cc1cc(-c2cc(C(=O)NC(C(=O)O)C(C)C)on2)ccc1NC(=O)Nc1c(F)cccc1F (stereo not shown) [Example 98]
system: hDGAT1 (Homo sapiens, UniProt O75907)
inhibition at 10 µM: 50 to 75%

Note: attention shifts to another entry.
Query: I would be grateful if you could share the reported inhibition at 10 µM for CCC(C)[C@H](NC(=O)c1cc(-c2ccc(NC(=O)Nc3ccccc3)cc2)no1)C(=O)OC (stereo partly shown) [Example 78] .
Result: 0 to 50%

----------
- system: hDGAT1 (Homo sapiens)
- Construct: host or cells: Sf9 insect cells (baculovirus); microsomal preparation
- assay-method-text: In-vitro DGAT1 assay (hDGAT1 microsomes from Sf9 cells, 14C oleoyl CoA, triglyceride formation)
- Assay type: biochemical
- applied-conditions: At 5 μM
inhibition at 5 µM values by entry

Known results for molecules:
molecule: COC(=O)[C@@H](NC(=O)c1nc(-c2ccc(NC(=O)Nc3ccc(C)cc3)cc2)no1)C(C)C [Example 346]
readout-name: inhibition at 5 µM
val: 50 to 75%
--
molecule: COC(=O)C(NC(=O)c1cc(-c2ccc(NC(=O)Nc3ccc(C(F)(F)F)cc3)cc2)no1)C(C)C (stereo not shown) [Example 275]
readout-name: inhibition at 5 µM
val: 0 to 50%
--
molecule: COC(=O)[C@@H](NC(=O)c1cc(-c2ccc(NC(=S)Nc3cccc(F)c3)cc2)no1)C(C)C [Example 267]
readout-name: inhibition at 5 µM
val: 0 to 50%
--
molecule: CC(C)C(NC(=O)c1cc(-c2ccc(NC(=O)Nc3cccc(F)c3)cc2)no1)C(=O)O (stereo not shown) [Example 152]
readout-name: inhibition at 5 µM
val: 75 to 100%
--
molecule: COC(=O)C(NC(=O)c1cc(-c2ccc(NC(=O)Nc3ccc(-c4cc(C(=O)NC(C(=O)OC)C(C)C)on4)cc3)cc2)no1)C(C)C (stereo not shown) [Example 281]
readout-name: inhibition at 5 µM
val: 0 to 50%

Query: Need inhibition at 5 µM of CC(C)[C@H](NC(=O)c1nc(-c2ccc(NC(=O)Nc3ccccc3F)cc2)no1)C(=O)O [Example 349] , thanks.
Result: 50 to 75%
